The reported measurements were obtained from ChEMBL document CHEMBL4808244.

This section lists log10 of IC50 readings for Autotaxin (Homo sapiens, UniProt Q13822).
Answers are given as log10 of IC50 in nM.

**Query** Which measured log10 of IC50 value corresponds to `CCc1nc2c(C)cc(-c3ccc(CN4CCC[C@H]4CO)cc3)cn2c1NC(=O)NCc1ccc(OC)c(Cl)c1` ?
**Result** 2.70

**Query** Follow-up entry: `CCc1nc2c(C)cc(-c3ccc(C(=O)N4CCN(C)CC4)cc3)cn2c1NC(=O)NCc1ccc(F)cc1`
**Result** 2.41

**Query** Let us now turn to `CCc1nc2c(C)cc(-c3ccc(C(=O)N4CCN(C)CC4)cc3)cn2c1NC(=O)NCc1ccc(OC)c(Cl)c1`
**Result** 2.33

**Query** Same thing, different molecule: `COc1ccc(CNC(=O)Nc2c(C)nc3c(C)cc(-c4ccc(CN5CCC(O)CC5)cc4)cn23)cc1Cl`
**Result** 1.04

**Query** What about `CCc1nc2c(C)cc(-c3ccc(CN4CCN(CCO)CC4)cc3)cn2c1NC(=O)NCc1ccc(OC)c(Cl)c1` ?
**Result** 0.73

**Query** Follow-up entry: `CCc1nc2c(C)cc(-c3ccc(CN4CCCC4)cc3)cn2c1NC(=O)NCc1ccc(Cl)cc1`
**Result** 3.03

**Query** Check `CCc1nc2c(C)cc(-c3ccc(CN4CCC(O)CC4)cc3)cn2c1NC(=O)NCc1ccc(OC)c(Cl)c1` too.
**Result** 0.87

**Query** Please do the same for `CCc1nc2c(C)cc(-c3ccc(CN4CCC(O)CC4)cc3)cn2c1NC(=O)NCc1ccc(F)cc1` as well.
**Result** 0.24

**Query** And what about the molecule `CCc1nc2c(C)cc(-c3ccc(CN4CCN(C)CC4)cc3)cn2c1NC(=O)NCc1ccc(F)cc1` ?
**Result** 2.65
